- targetOrTestSystem: human LOX-1 (full-length, on cells) (human, UniProt P78380 1-273)
- measurementProtocol: cell-based or functional assay
Below, each entry is listed with its recorded Inhibition of ROS generation (IC50, nM).
Write down the numeric answer in nM and omit the unit.

These solved cases illustrate the format of a correct answer.
MOR22031 (antibody, human IgG1, kappa, L234A L235A, V domains shown, Human IgG1f LALA; also called MOR022031; MOR20231) VH: QVQLVQSGAEVKKPGSSVKVSCKASGGTFSDYAISWVRQAPGQGLEWMGGIMPISGAPYYAQKFQGRVTITADESTSTAYMELSSLRSEDTAVYYCARDSSTSYYYYFDYWGQGTLVTVSS VL: DIQMTQSPSSLSASVGDRVTITCRASQDISSWLAWYQQKPGKAPKLLIYQASNLQSGVPSRFSGSGSGTDFTLTISSLQPEDFATYYCQQIDHTPFTFGQGTKVEIKR : 1.9
MOR22034 (antibody, human IgG1, kappa, L234A L235A, V domains shown, Human IgG1f LALA; also called MOR022034; MOR20234) VH: QVQLVQSGAEVKKPGSSVKVSCKASGGTFSDYAISWVRQAPGQGLEWMGGIVPIVGTANYAQKFQGRVTITADESTSTAYMELSSLRSEDTAVYYCARDSSTSYYYYFDYWGQGTLVTVSS VL: DIQMTQSPSSLSASVGDRVTITCRASQDISSWLAWYQQKPGKAPKLLIYQASNLQSGVPSRFSGSGSGTDFTLTISSLQPEDFATYYCQQMWQFPITFGQGTKVEIKR : 1.6
MOR022025 (antibody, human IgG1, lambda, L234A L235A, V domains shown, Human IgG1f LALA; also called MOR20225; MOR020225) VH: QVQLLESGGGLVQPGGSLRLSCAASGFTFSDYALHWVRQAPGKGLEWVSVISYQGGFIYYADSVKGRFTISRDNSKNTLYLQMNSLRAEDTAVYYCARSPGLTSYHDSWGQGTLVTVSS VL: QSVLTQPPSVSGAPGQRVTISCSGSSSNIGSNYVSWYQQLPGTAPKLLIHSTSHRPSGVPDRFSGSKSGTSASLAITGLQAEDEADYYCQSWDYESERVVFGGGTKLTVLG : 4.6

Now consider a different binder.
Lab note: MOR22028 (antibody, human IgG1, lambda, L234A L235A, V domains shown, Human IgG1f LALA; also called MOR022028; MOR20228) VH: QVQLLESGGGLVQPGGSLRLSCAASGFTFSDYALHWVRQAPGKGLEWVSVISYAGGFKFYADSVKGRFTISRDNSKNTLYLQMNSLRAEDTAVYYCARSPGLTSYHDSWGQGTLVTVSS VL: QSVLTQPPSVSGAPGQRVTISCSGSSSNIGSNYVSWYQQLPGTAPKLLIHSSSHRPSGVPDRFSGSKSGTSASLAITGLQAEDEADYYCQSWDYESERVVFGGGTKLTVLG gave Inhibition of ROS generation (IC50, nM) of 3.5
